target: Estrogen receptor (Homo sapiens); experiment: qHTS assay for small molecule antagonists of estrogen receptor alpha signaling (AID 588513); conditions: ER-alpha-UAS-bla HEK293, beta-lactamase ratio, antagonist mode; series mostly up to 76.9 µM
Activity calls are given as the source filed them. Calls follow the shape of the dose curve; as a rule, active = well fitted curve in the direction sought with a large enough effect in the signal ratio, with a control signal flat (not every such curve was filed as active); inconclusive = small, poorly fitted or top-dose-only effect, or effect the other way, or a change in a side signal; inactive = no such curve, though single readings can be large or run the other way; the % refers to the signal ratio.
Pick one: label 1 (active), label 0 (inactive)

Given C=CCc1ccc(O)c(OC)c1 , state the outcome it received in this test.
label 0

Given Oc1c(Cl)cc(Cl)cc1Sc1cc(Cl)cc(Cl)c1O , state the outcome it received in this test.
label 1

Given Cc1cc(=O)n(-c2ccccc2)n1C , state the outcome it received in this test.
label 0

Given C=C(CC)C(=O)c1ccc(OCC(=O)O)c(Cl)c1Cl , state the outcome it received in this test.
label 0

Given CC(=O)O[C@]1(C(C)=O)CC[C@H]2[C@@H]3C[C@H](C)C4=CC(=O)CC[C@]4(C)[C@H]3CC[C@@]21C , state the outcome it received in this test.
label 0

src = PubChem BioAssay (NCATS)
